Test system: corn
Test: Post emergence test, phytotoxicity on the crop corn
Format: in vivo
Settings: post emergence spray, 10 g/a, evaluated two weeks after treatment
// Evaluation index Corn (phytotoxicity) lookup, one value per entry

>  <molecule>
CCS(=O)(=O)Nc1cc(-n2nc3n(c2=O)CCCS3)c(F)cc1C#N

>  <target.desc>
corn

>  <Evaluation index Corn (phytotoxicity)>
1 (small 0.1 to 12.5)

$$$$
>  <molecule>
CCS(=O)(=O)Nc1cc(-n2nc3n(c2=O)CCS3)c(F)cc1C#N

>  <target.desc>
corn

>  <Evaluation index Corn (phytotoxicity)>
0 (no effect 0)

$$$$
>  <molecule>
CCS(=O)(=O)Nc1cc(-n2nc3n(c2=O)CCCN3C)c(F)cc1C#N

>  <target.desc>
corn

>  <Evaluation index Corn (phytotoxicity)>
3 (big 25.1 to 50.0)

$$$$
>  <molecule>
C#CCOc1cc(-n2nc3n(c2=O)CCCN3)c(F)cc1Cl

>  <target.desc>
corn

>  <Evaluation index Corn (phytotoxicity)>
3 (big 25.1 to 50.0)

$$$$
>  <molecule>
COC(=O)C(Cl)Cc1cc(-n2nc3ccc(Cl)cn3c2=O)c(F)cc1Cl (stereo not drawn)

>  <target.desc>
corn

>  <Evaluation index Corn (phytotoxicity)>
0 (no effect 0)

$$$$

The measured Evaluation index Corn (phytotoxicity) that CCS(=O)(=O)N(C(C)=O)c1cc(-n2nc3ccc(Cl)cn3c2=O)c(F)cc1C#N showed for corn is 1 (small 0.1 to 12.5)

Query C#CCOc1cc(-n2nc3ccc(Cl)cn3c2=O)c(F)cc1Cl on corn; Evaluation index Corn (phytotoxicity) returned: 1 (small 0.1 to 12.5)

Record Cc1cc2c(-n3nc4ccc(Cl)cn4c3=O)c(F)cc(Cl)c2o1 has corn Evaluation index Corn (phytotoxicity) equal to 1 (small 0.1 to 12.5)

Form field, Evaluation index Corn (phytotoxicity) with corn, item CCS(=O)(=O)Nc1cc(-n2nc3ccc(Cl)cn3c2=O)c(F)cc1Cl : 1 (small 0.1 to 12.5)

---

property: melting point

Input CCS(=O)(=O)Nc1cc(-n2nc3ccc(Cl)cn3c2=O)c(F)cc1C#N . Output melting point: 220 to 222 °C

Documented melting point of CC(C)c1sc(F)c(-n2nc3ccc(Cl)cn3c2=O)c1C#N : 148 to 150 °C

---

System: velvetleaf
Test: Herbicidal effects against weeds (post emergence), velvetleaf
Format: in vivo
Conditions: post emergence spray, 1 g/a, evaluated two weeks after treatment
property: Evaluation index Velvet leaf

Evaluation index Velvet leaf for C#CC(C)Oc1cc(-n2nc3ccc(Cl)cn3c2=O)c(F)cc1Cl (centres unmarked) is 5 (maximum *all dead) 100)

Notebook: CCS(=O)(=O)Nc1cc(-n2nc3n(c2=O)CCCN3C)c(F)cc1C#N , Evaluation index Velvet leaf read as 4 (maximum 87.6 to 99.9)

// recorded Evaluation index Velvet leaf for CCS(=O)(=O)N(C(=O)C(C)(C)C)c1cc(-n2nc3ccc(Cl)cn3c2=O)c(F)cc1C#N : 5 (maximum *all dead) 100)

Lab book: Evaluation index Velvet leaf of C#CCOc1cc(-n2nc3ccc(Cl)cn3c2=O)c(F)cc1Cl noted as 5 (maximum *all dead) 100)

get_value(item= C=CCOc1cc(-n2nc3ccc(Cl)cn3c2=O)c(F)cc1Cl , readout=Evaluation index Velvet leaf) returns 4 (maximum 87.6 to 99.9)

For this compound ( CCS(=O)(=O)Nc1cc(-n2nc3n(c2=O)CC(C)S3)c(F)cc1C#N (centres unmarked) ), measured Evaluation index Velvet leaf is 5 (maximum *all dead) 100)

The recorded Evaluation index Velvet leaf for CCS(=O)(=O)Nc1cc(-n2nc3n(c2=O)CCS3)c(F)cc1C#N is 5 (maximum *all dead) 100)

Consider CC(C)S(=O)(=O)Nc1cc(-n2nc3ccc(Cl)cn3c2=O)c(F)cc1[N+](=O)[O-] . Its measured Evaluation index Velvet leaf is 5 (maximum *all dead) 100)

The compound identified as Cc1cc2c(-n3nc4ccc(Cl)cn4c3=O)c(F)cc(Cl)c2o1 registered its Evaluation index Velvet leaf at 5 (maximum *all dead) 100)

Lookup result for COC(=O)C(Cl)Cc1cc(-n2nc3ccc(Cl)cn3c2=O)c(F)cc1Cl (centres unmarked) ; measured Evaluation index Velvet leaf: 5 (maximum *all dead) 100)

The value of Evaluation index Velvet leaf measured for the compound CCS(=O)(=O)Nc1cc(-n2nc3n(c2=O)CCCS3)c(F)cc1C#N turned out to be 5 (maximum *all dead) 100)

---

property: melting point

Example cases with answers are listed next.
>  <compound.structure>
CC(C)OC(=O)c1cc(-n2nc3ccc(Cl)cn3c2=O)c(F)cc1Cl

>  <melting point>
120 to 123 °C

$$$$
>  <compound.structure>
CCS(=O)(=O)Nc1cc(-n2nc3n(c2=O)CCCS3)c(F)cc1C#N

>  <melting point>
193 to 195 °C

$$$$
>  <compound.structure>
CCS(=O)(=O)N(C(C)=O)c1cc(-n2nc3ccc(Cl)cn3c2=O)c(F)cc1C#N

>  <melting point>
220 to 222 °C

$$$$
>  <compound.structure>
CCOC(=O)C=Cc1cc(-n2nc3ccc(Cl)cn3c2=O)c(F)cc1Cl

>  <melting point>
162 to 165 °C

$$$$
>  <compound.structure>
CCC(=O)NS(=O)(=O)c1cc(-n2nc3ccc(Cl)cn3c2=O)c(F)cc1C#N

>  <melting point>
190 to 194 °C

$$$$

Below: the item to evaluate.
Reported melting point of Cc1cc2c(-n3nc4ccc(Cl)cn4c3=O)c(F)cc(Cl)c2o1 : 205 to 207 °C
